This collection of values is drawn from patent US20110086806A1.

koff values, listed per item
Target: T1, recombinant human IL-23R/Fc chimera (R&D Systems) (human, UniProt Q5VWK5 24-355)
T1 construct: Bought; also called rhIL23RFc
T1 sequence (looked up): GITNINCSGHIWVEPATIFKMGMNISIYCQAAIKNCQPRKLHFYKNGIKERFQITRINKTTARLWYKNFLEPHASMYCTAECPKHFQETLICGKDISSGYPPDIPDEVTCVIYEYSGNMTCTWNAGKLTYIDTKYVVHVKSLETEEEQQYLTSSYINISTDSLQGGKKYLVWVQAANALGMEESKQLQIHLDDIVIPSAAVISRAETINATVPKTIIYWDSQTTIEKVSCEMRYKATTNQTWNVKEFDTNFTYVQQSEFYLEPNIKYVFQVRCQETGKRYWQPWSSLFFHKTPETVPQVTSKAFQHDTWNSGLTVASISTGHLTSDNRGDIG
Experiment: SPR

Problem: Which koff is listed for 001-69.3C2 monomeric CTLD (designed binder, C-terminal tag not specified) ALQTVCLKGTKVHMKCFLAFTQTKTFHEASEDCISRGGTLSTPQTGSENDALYEYLRQSVGNEAEIWLGLNTNVTRTLWVDMTGARIAYKNWETEITAQPDGGLGVWGENCAVLSGAANGKWFDKRCRDQLPYICQFGIV ?
Solution: 0.00741 s⁻¹

Problem: Would you kindly share the measured koff for 105-08-1A3 ATRIMER complex (designed binder, Homotrimer of three identical chains (ATRIMER complex); one chain is given., not shown: C-terminal tag: His/Myc (pANA4) or HA-StrepII (pANA10)) EPPTQKPKKIVNAKKDVVNTKMFEELKSRLDTLAQEVALLKEQQALQTVCLKGTKVHMKCFLAFTQTKTFHEASEDCISRGGTLSTPQTGSENDALYEYLRQSVGNEAEIWLGLNGSPRTDTWVDMTGARIAYKNWETEITAQPDGGWGVFGENCAVLSGAANGKWFDKRCRDQLPYICQFGIV ?
Solution: 0.000348 s⁻¹

Problem: Sample 105-08-1D3 ATRIMER complex (designed binder) EPPTQKPKKIVNAKKDVVNTKMFEELKSRLDTLAQEVALLKEQQALQTVCLKGTKVHMKCFLAFTQTKTFHEASEDCISRGGTLSTPQTGSENDALYEYLRQSVGNEAEIWLGLNGSKVTETWVDMTGARIAYKNWETEITAQPDGGFGYFGENCAVLSGAANGKWFDKRCRDQLPYICQFGIV — what was its koff?
Solution: 0.000301 s⁻¹
